TEST_TARGET: T1, O3
T1 chain: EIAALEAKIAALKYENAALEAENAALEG
ASSAY_COMMENT: two-hybrid library CC0;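 also: natural log of median RNA to DNA barcode read ratio; higher means stronger binding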
TEST_SETTINGS: mean of both orientations
ENDPOINT: interaction score

binder="KIAALKAEIAALEYENAALEAENAALEG [O11]" recorded_measurement=-2.55
binder="EIAALEAKIAALKYENAALEAENAALEG [O3]" recorded_measurement=-2.75
binder="KNAALKAENAALEYKIAALKAKIAALKG [O10]" recorded_measurement=-2.6
